# PROTOCOL_TEXT: Plasma pharmacokinetics after IV bolus, non-compartmental analysis
# Format: in vivo, mouse
# CONDITION_SUMMARY: mouse, plasma; healthy male DBA1/J mice, IV bolus 2 nmol (FAPI dosed 51 nmol, dose normalized to 2 nmol), Mean ± SEM
ENDPOINT_LABEL: C0 (µM)

| COMPOUND | C0 (µM) |
| --- | --- |
| CC1(C)C(/C=C/C2=C(Oc3ccc(S(=O)(=O)O)cc3)C(=C/C=C3/N(CCCCS(=O)(=O)O)c4ccc(S(=O)(=O)O)cc4C3(C)C)/CCC2)=[N+](CCCCCC(=O)N2CCN(CCCOc3ccc4nccc(C(=O)NCC(=O)N5CC(F)(F)C[C@H]5C#N)c4c3)CC2)c2ccc(S(=O)(=O)O)cc21.O=C([O-])C(F)(F)F [FAPI-800CW] | 1.25 |

(I) N#CC1CC(F)(F)CN1C(=O)CNC(=O)c1ccnc2ccc(OCCCN3CCN(C(=O)C(N)CCC(=O)NCCOCCOCC(=O)NCc4ccc(S(=O)(=O)NC(=O)c5ccc(-c6ccc(C(F)(F)F)cc6)cc5)cc4)CC3)cc12 (stereo not drawn)
(II) N#C[C@@H]1CC(F)(F)CN1C(=O)CNC(=O)c1ccnc2ccc(OCCCN3CCNCC3)cc12
q: Among I and II , whose measured C0 is the smaller figure? Give the label under which the chosen entry appears.
a: II
(II: 0.05 µM, I: 0.189 µM)

###

# PROTOCOL_TEXT: Plasma pharmacokinetics after IV bolus, non-compartmental analysis
# Type: in vivo, mouse
# CONDITION_SUMMARY: mouse, plasma; healthy male DBA1/J mice, IV bolus 2 nmol (FAPI dosed 51 nmol, dose normalized to 2 nmol), Mean ± SEM
ENDPOINT_LABEL: AUC(0-inf) (µM·h)

| COMPOUND | AUC(0-inf) (µM·h) |
| --- | --- |
| CC1(C)C(/C=C/C2=C(Oc3ccc(S(=O)(=O)O)cc3)C(=C/C=C3/N(CCCCS(=O)(=O)O)c4ccc(S(=O)(=O)O)cc4C3(C)C)/CCC2)=[N+](CCCCCC(=O)N2CCN(CCCOc3ccc4nccc(C(=O)NCC(=O)N5CC(F)(F)C[C@H]5C#N)c4c3)CC2)c2ccc(S(=O)(=O)O)cc21.O=C([O-])C(F)(F)F [FAPI-800CW] | 0.525 |

(I) N#C[C@@H]1CC(F)(F)CN1C(=O)CNC(=O)c1ccnc2ccc(OCCCN3CCNCC3)cc12
(II) N#CC1CC(F)(F)CN1C(=O)CNC(=O)c1ccnc2ccc(OCCCN3CCN(C(=O)C(N)CCC(=O)NCCOCCOCC(=O)NCc4ccc(S(=O)(=O)NC(=O)c5ccc(-c6ccc(C(F)(F)F)cc6)cc5)cc4)CC3)cc12 (stereo not drawn)
q: Rank I against II by their AUC(0-inf) values and give the higher one. Give the label under which the chosen entry appears.
a: II
(II: 0.088 µM·h, I: 0.014 µM·h)
